B1: Pituitary-specific positive transcription factor 1, residues 130 to 198; numbered along this chain, P28069 (parent)
chain: RELEKFANEFKVRRIKLGYTQTNVGEALAAVHGSEFSQTTICRFENLQLSFKNACKLKAILSKWLEEAE

# Variants of: B1
# assayMethodText: abundance fitness (aPCA) (normalised: wild type 0, dead -1); higher = more abundant; growth selection in yeast, the domain comes from the species named
# testContext: Homo sapiens
metricName: abundance fitness

Q21K = -0.702
T20E = -0.536
T20I = -0.951
N53G = -0.087
L65P = -0.752
K5F = -0.46
I41S = -0.866
F51R = -0.161
F44E = -0.72
I15V = -0.219
T39D = 0.118
L47A = -0.204
V12A = 0.173
K11W = -0.911
N53I = -0.027
S62C = -0.3
F10V = -0.649
T40I = -0.642
E66Y = -0.304
